# Test system: THP-1 (human acute monocytic leukemia)
# measurement-description: Leukemia cell line activity assay (Cell Counting Kit-8, 5 days), THP-1
# condition-parameters: Homo sapiens, THP-1, 120 h, read-out: THP-1 CC50, THP-1 cells, 5 days incubation
value-kind: CC50 (nM)

{"compound": "CCCCCCCCCCCCCCCCCC(=O)OCC1(CO[P@@](=O)(N[C@@H](C)C(=O)O[C@@H](C)CCC)Oc2ccccc2)C/C1=C/n1cnc2c(=O)[nH]c(N)nc21 (stereo partly shown) [Example 24]", "numeric-result": 3800}
{"compound": "CCC(CC)COC(=O)C[C@H](N[P@](=O)(OCC1(COC(=O)C(C)C)C/C1=C/n1cnc2c(=O)[nH]c(N)nc21)Oc1ccccc1)C(=O)OCC(CC)CC (single isomer, unassigned) [Example 35-1]", "numeric-result": 290}
{"compound": "CCCC(CCC)COC(=O)[C@H](C)N[P@](=O)(OC[C@@]1(COC(C)=O)C/C1=C/n1cnc2c(=O)[nH]c(N)nc21)Oc1ccccc1 [Example 13-1]", "numeric-result": 870}
{"compound": "CCCC(CCC)COC(=O)[C@H](C)N[P@](=O)(OCC1(COC(=O)C(C)C)C/C1=C/n1ccc(N)nc1=O)Oc1ccccc1 (single isomer, unassigned) [Example 16-1]", "numeric-result": 350}
{"compound": "CCC(CC)COC(=O)[C@H](Cc1ccccc1)N[P@](=O)(OCC1(COC(=O)[C@@H](N)C(C)C)C/C1=C/n1cnc2c(=O)[nH]c(N)nc21)Oc1ccccc1 (stereo partly shown) [Example 23]", "numeric-result": 2400}
{"compound": "CCCC(CCC)COC(=O)[C@H](C)N[P@](=O)(OCC1(COC(=O)C(C)C)C/C1=C/n1cc(F)c(N)nc1=O)Oc1ccccc1 (single isomer, unassigned) [Example 39-2]", "numeric-result": 600}
{"compound": "CCC[C@H](C)OC(=O)[C@H](C)N[P@](=O)(OC[C@@]1(COC(=O)C(C)C)C/C1=C/n1cnc2c(=O)[nH]c(N)nc21)Oc1ccccc1 [Example 6-2]", "numeric-result": 740}

Recorded values, source patent US12221459B2.
